System: Bacillus subtilis
Test: Antibiofilm activity against Bacillus subtilis MTCC 121 after 24 hrs by crystal violet staining based method
Format: functional
Conditions: MTCC 121, 24 h
measuredQuantity: IC50 (µM)
# output: bare number, implied unit µM

smilesRepresentation | testedSystem | val
O=C(Cn1nc(C(F)(F)F)c2c(-c3ccccc3)c3ccccc3nc21)NCCN1CCNCC1 | Bacillus subtilis | 2.2

### Prompt Return IC50 (reported value) for this molecule: O=C(O)c1cn(C2CC2)c2cc(N3CCNCC3)c(F)cc2c1=O
### Response 0.6

----------
Tested on: COLO 205
Assay: Cytotoxicity against human COLO205 cells after 24 hrs by MTT assay
Assay type: functional, cell-based
Settings: COLO 205, 24 h
measuredQuantity: IC50
Kindly format the answer as number then unit.

smilesRepresentation | testedSystem | IC50
Cc1c2ccccc2nc2c1c(C(F)(F)F)nn2CC(=O)N1CCN(CCO)CC1 | COLO 205 | 19.8 µM
CNC(=O)Cn1nc(C)c2c(C)c3ccccc3nc21 | COLO 205 | 16.3 µM
O=C(Cn1nc(C(F)(F)F)c2c(-c3ccccc3)c3ccccc3nc21)NC1CCCCC1 | COLO 205 | 32.1 µM
CNC(=O)Cn1nc(C(F)(F)F)c2c(-c3ccccc3)c3ccccc3nc21 | COLO 205 | 19.8 µM
Cc1c2ccccc2nc2c1c(C(F)(F)F)nn2CC(=O)NC1CC1 | COLO 205 | 22.7 µM

### Prompt // fetch IC50 given entry CCCNC(=O)Cn1nc(C(F)(F)F)c2c(-c3ccccc3)c3ccccc3nc21
### Response 22.1 µM

### Prompt Please supply the value of reported IC50 for the item COc1ccc(NC(=O)Cn2nc(C)c3c(C)c4ccccc4nc32)cc1
### Response 18.9 µM

### Prompt Identify measured IC50 associated with Cc1nn(CC(=O)N2CCCCC2)c2nc3ccccc3c(C)c12
### Response 11.9 µM

### Prompt Please give measured IC50 of the following entry: CNC(=O)Cn1nc(C(F)(F)F)c2c(C)c3ccccc3nc21
### Response 12.8 µM

### Prompt Return IC50 for the following compound: O=c1[nH]cc(F)c(=O)[nH]1
### Response 1.9 µM

### Prompt Please report IC50 for the following compound: Cc1nn(CC(=O)NC2CC2)c2nc3ccccc3c(C)c12
### Response 11.9 µM

### Prompt Give the reported IC50 for this compound. COc1ccc(NC(=O)Cn2nc(C(F)(F)F)c3c(-c4ccccc4)c4ccccc4nc32)cc1
### Response 19.6 µM

----------
Reported MIC is given for each of the following molecules.
System: Candida parapsilosis
Assay: Antifungal activity against Candida parapsilosis MTCC 1744 after 24 hrs by well diffusion method
Assay type: functional
Settings: MTCC 1744, 24 h
Provide the reading as a plain figure in µg/mL.

molecule | quantityUnit | MIC
O=C(Cn1nc(C(F)(F)F)c2c(-c3ccccc3)c3ccccc3nc21)NCCN1CCNCC1 | µg/mL | 7.8
Clc1ccc(COC(Cn2ccnc2)c2ccc(Cl)cc2Cl)c(Cl)c1 (centres undefined) | µg/mL | 7.8
O=C(Cn1nc(C(F)(F)F)c2c(-c3ccccc3)c3ccccc3nc21)N1CCOCC1 | µg/mL | 31.2

### Prompt Please report MIC for the following molecule: COc1ccc(NC(=O)Cn2nc(C(F)(F)F)c3c(-c4ccccc4)c4ccccc4nc32)cc1
### Response 31.2

----------
Listed below: pIC50 values for each entry.
Test system: COLO 205
Assay: Cytotoxicity against human COLO205 cells after 24 hrs by MTT assay
Format: functional, cell-based
Conditions: COLO 205, 24 h
# pIC50 is unitless: minus log10 of the molar concentration; print number only

Below, each entry is followed by its recorded pIC50 result.
smilesRepresentation | pIC50
CCNC(=O)Cn1nc(C(F)(F)F)c2c(C)c3ccccc3nc21 | 4.79
CCCCCCNC(=O)Cn1nc(C(F)(F)F)c2c(C)c3ccccc3nc21 | 4.65

### Prompt # return pIC50 for Cc1c2ccccc2nc2c1c(C(F)(F)F)nn2CC(=O)N1CCCCC1 , test system: COLO 205
### Response 4.60

### Prompt Provide COLO 205 pIC50 reading for CCNC(=O)Cn1nc(C(F)(F)F)c2c(-c3ccccc3)c3ccccc3nc21 .
### Response 4.72

### Prompt Look up and report pIC50, with COLO 205 as system, for O=C(Cn1nc(C(F)(F)F)c2c(-c3ccccc3)c3ccccc3nc21)N1CCCC1
### Response 4.59

### Prompt Report value: pIC50, system: COLO 205, molecule: Cc1c2ccccc2nc2c1c(C(F)(F)F)nn2CC(=O)NC1CCCCC1
### Response 4.61

### Prompt State pIC50 (COLO 205) of Cc1nn(CC(=O)NC2CCCCC2)c2nc3ccccc3c(C)c12 .
### Response 4.70

### Prompt Would you please give the reported pIC50 of O=C(Cn1nc(C(F)(F)F)c2c(-c3ccccc3)c3ccccc3nc21)Nc1ccc([N+](=O)[O-])cc1 with COLO 205?
### Response 4.84

### Prompt Specify the recorded pIC50 for Cc1nn(CC(=O)Nc2ccc([N+](=O)[O-])cc2)c2nc3ccccc3c(C)c12 , system: COLO 205.
### Response 4.70

### Prompt State, for COLO 205, measured pIC50 of the molecule listed here: O=C(Cn1nc(C(F)(F)F)c2c(-c3ccccc3)c3ccccc3nc21)NCc1ccco1
### Response 4.55

----------
Test system: Raoultella planticola
Assay: Antibacterial activity against Klebsiella planticola MTCC 530 after 24 hrs by well diffusion method
Format: functional
Details: MTCC 530, 24 h
measuredQuantity: MIC

// solved cases for MIC follow
molecule | MIC
O=C(Cn1nc(C(F)(F)F)c2c(-c3ccccc3)c3ccccc3nc21)N1CCCC1 | 7.8 to 125 µg/mL
Cc1c2ccccc2nc2c1c(C(F)(F)F)nn2CC(=O)NC1CC1 | 7.8 to 125 µg/mL

### Prompt Report measured MIC; entry is CNC(=O)Cn1nc(C)c2c(C)c3ccccc3nc21
### Response > 125 µg/mL

----------
Tested on: COLO 205
Assay: Cytotoxicity against human COLO205 cells after 24 hrs by MTT assay
Format: functional, cell-based
Conditions: COLO 205, 24 h
IC50 less than 20 µM is 1; IC50 greater than or equal to 20 µM is 0.

Previously resolved entries follow.
smilesRepresentation | labelValue
Cc1c2ccccc2nc2c1c(C(F)(F)F)nn2CC(=O)Nc1ccc([N+](=O)[O-])cc1 | 0
O=C(Cn1nc(C(F)(F)F)c2c(-c3ccccc3)c3ccccc3nc21)NCCN1CCNCC1 | 1

### Prompt is_below(IC50, 20 µM) for Cc1c2ccccc2nc2c1c(C(F)(F)F)nn2CC(=O)NCc1ccco1 ?
### Response 0

### Prompt Lab log: compare recorded IC50 with 20 µM; is it strictly lower for O=C(Cn1nc(C(F)(F)F)c2c(-c3ccccc3)c3ccccc3nc21)N1CCCCC1 ?
### Response 1

### Prompt A record lists Cc1nn(CC(=O)NCc2ccco2)c2nc3ccccc3c(C)c12 . Is its IC50 below 20 µM?
### Response 1

----------
System: Candida albicans
Assay: Antifungal activity against Candida albicans MTCC 227 after 24 hrs by well diffusion method
Format: functional
Conditions: MTCC 227, 24 h
Reported MIC by item:
Number only, in µg/mL; omit the unit.

Answered examples (3):
compound | MIC / µg/mL
COc1ccc(NC(=O)Cn2nc(C(F)(F)F)c3c(-c4ccccc4)c4ccccc4nc32)cc1 | 31.2
O=C(Cn1nc(C(F)(F)F)c2c(-c3ccccc3)c3ccccc3nc21)NCCN1CCNCC1 | 15.6
Clc1ccc(COC(Cn2ccnc2)c2ccc(Cl)cc2Cl)c(Cl)c1 (centres undefined) | 7.8

Moving on to another compound below.
### Prompt Query MIC for O=C(Cn1nc(C(F)(F)F)c2c(-c3ccccc3)c3ccccc3nc21)N1CCOCC1
### Response 62.5

----------
Tested on: HepG2
Assay: Cytotoxicity against human HepG2 cells after 24 hrs by MTT assay
Type: functional, cell-based
Settings: HepG2, 24 h
measuredQuantity: pIC50
Worth noting: pIC50 values are minus log10 of concentrations stated in mol/L.

Worked cases, answers included:
molecule | pIC50
Cc1c2ccccc2nc2c1c(C(F)(F)F)nn2CC(=O)NC1CC1 | 4.73
O=C(Cn1nc(C(F)(F)F)c2c(-c3ccccc3)c3ccccc3nc21)Nc1ccc([N+](=O)[O-])cc1 | 4.91
CNC(=O)Cn1nc(C)c2c(C)c3ccccc3nc21 | 4.75
Cc1nn(CC(=O)NC2CCCCC2)c2nc3ccccc3c(C)c12 | 4.97
CNC(=O)Cn1nc(C(F)(F)F)c2c(C)c3ccccc3nc21 | 4.72
CCNC(=O)Cn1nc(C(F)(F)F)c2c(C)c3ccccc3nc21 | 4.68

### Prompt For the molecule Cc1nn(CC(=O)N2CCCCC2)c2nc3ccccc3c(C)c12 , give its reported pIC50.
### Response 4.81

### Prompt // Input: O=C(Cn1nc(C(F)(F)F)c2c(-c3ccccc3)c3ccccc3nc21)N1CCCCC1 . Output its pIC50 only.
### Response 4.52

### Prompt Consider the molecule Cc1nn(CC(=O)Nc2ccc([N+](=O)[O-])cc2)c2nc3ccccc3c(C)c12 and give its recorded pIC50.
### Response 4.76

### Prompt Return pIC50 for the following molecule: Cc1nn(CC(=O)NC2CC2)c2nc3ccccc3c(C)c12
### Response 4.82

### Prompt Using the record for CCCNC(=O)Cn1nc(C(F)(F)F)c2c(-c3ccccc3)c3ccccc3nc21 , state its measured pIC50.
### Response 4.63

### Prompt Specify reported pIC50 for the molecule shown: O=c1[nH]cc(F)c(=O)[nH]1 [FLUOROURACIL]
### Response 5.85

### Prompt Return reported pIC50. Input molecule: Cc1c2ccccc2nc2c1c(C(F)(F)F)nn2CC(=O)NC1CCCCC1
### Response 4.53

### Prompt Identify the reported pIC50 for the following entry. Cc1c2ccccc2nc2c1c(C(F)(F)F)nn2CC(=O)NCc1ccco1
### Response 4.32

### Prompt In one line, give reported pIC50 of the entry COc1ccc(NC(=O)Cn2nc(C)c3c(C)c4ccccc4nc32)cc1 .
### Response 4.65

### Prompt Please list pIC50 recorded for the molecule Cc1c2ccccc2nc2c1c(C(F)(F)F)nn2CC(=O)N1CCCCC1
### Response 4.44

### Prompt Could you please provide reported pIC50 for Cc1c2ccccc2nc2c1c(C(F)(F)F)nn2CC(=O)N1CCN(CCO)CC1 ? Thanks!
### Response 4.52

### Prompt Give the reported value of pIC50 for this record: COc1ccc(NC(=O)Cn2nc(C(F)(F)F)c3c(-c4ccccc4)c4ccccc4nc32)cc1
### Response 4.69

### Prompt Return the recorded pIC50 value; entry: CCNC(=O)Cn1nc(C(F)(F)F)c2c(-c3ccccc3)c3ccccc3nc21
### Response 4.65

### Prompt Give the measured pIC50 for O=C(Cn1nc(C(F)(F)F)c2c(-c3ccccc3)c3ccccc3nc21)NCCN1CCNCC1
### Response 4.95

### Prompt Tell us which pIC50 value is on record for CCCCCCNC(=O)Cn1nc(C(F)(F)F)c2c(C)c3ccccc3nc21
### Response 4.71

### Prompt Give the measured pIC50 for Cc1nn(CC(=O)NCc2ccco2)c2nc3ccccc3c(C)c12
### Response 4.88

All values here come from ChEMBL document CHEMBL4014279.
